- EXPERIMENTAL TARGET: T1, Anti-HRP antibody(r)
- T1 construct: Rabbit IgG, immobilised on a microplate; also called rabbit anti-HRP antibodies; anti-HRP antibody from a rabbit
- TEST: labelled peptide on antibody immobilised on microplate; antigen HRP
Ends that are not written are not given here. FAM = carboxyfluorescein (FAM) fluorescent label
Assignment: determine reported fluorescence intensity in solution (S) after antigen binding for the given binders.
Give bare numbers.

Lab note: measured fluorescence intensity in solution (S) after antigen binding of SYWIHWVKQRPGQGLEWIGE (not fully specified (N-terminus), Synthetic 20-mer homologous to the FR2 region of the heavy chain; The fluorescent label differs between experiments; also called H1 switching peptide; third peptide compound H1) [H1 peptide] was 22000

Would you mind listing fluorescence intensity in solution (S) after antigen binding for each of the following binders?
1. VYYCAREPTGTGIYFDVWGK (not fully specified (N-terminus), Synthetic 20-mer homologous to the FR3 or FR4 region of the heavy chain; The label differs between experiments; also called H2 switching peptide; fourth peptide compound H2) [H2 peptide]
2. {FAM}-VYYCFQGSHVPFTK (Synthetic 14-mer homologous to the FR3 or FR4 region of the light chain; also called L2 switching peptide; second peptide compound L2) [L2 peptide]
3. TYLEWYPQKPGQSPKLLIYK (not fully specified (N-terminus), Synthetic 20-mer homologous to the FR2 region of the light chain; The label differs between experiments; also called L1 switching peptide; first peptide compound L1) [L1 peptide]

1. 18100
2. 16100
3. 12300
